Molecular target: human liver microsomal cytochrome P450 2E1 (CYP2E1) (Homo sapiens)
Sequence (P05181 whole entry): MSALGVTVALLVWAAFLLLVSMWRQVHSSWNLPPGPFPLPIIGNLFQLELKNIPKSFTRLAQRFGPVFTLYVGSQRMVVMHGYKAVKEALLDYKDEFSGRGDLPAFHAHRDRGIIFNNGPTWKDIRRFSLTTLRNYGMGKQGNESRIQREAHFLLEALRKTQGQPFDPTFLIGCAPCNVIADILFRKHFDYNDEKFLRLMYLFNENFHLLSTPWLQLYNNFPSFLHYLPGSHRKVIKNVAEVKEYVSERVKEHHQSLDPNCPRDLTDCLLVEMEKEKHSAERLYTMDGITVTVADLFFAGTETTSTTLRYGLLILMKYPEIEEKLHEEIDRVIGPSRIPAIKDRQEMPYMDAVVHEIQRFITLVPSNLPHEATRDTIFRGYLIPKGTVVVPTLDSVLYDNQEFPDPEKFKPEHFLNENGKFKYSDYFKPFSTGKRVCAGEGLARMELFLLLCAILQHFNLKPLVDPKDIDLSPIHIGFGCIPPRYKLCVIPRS
Assay: Human liver microsomal CYP2E1, chlorzoxazone 6-hydroxylation;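 note: chlorzoxazone added as substrate, 6-hydroxychlorzoxazone formation quantified by LC/MS/MS after 30 min at 37 °C with NADP+ regenerating system, compared against solvent control without test sample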
Conditions: 16.5 μM
# label = Condition met if Inhibition of CYP 2E1 < 30% else Condition not met

**Query** Please let me know if COc1c(O)cc2oc(Oc3ccc(O)cc3)cc(=O)c2c1O shows Inhibition of CYP 2E1 below 30%.
**Result** Condition not met

**Query** Please let me know if C=C(C)C1CC=C(C)CC1 (single isomer, unassigned; (+)) [(+)-Limonene] shows Inhibition of CYP 2E1 below 30%.
**Result** Condition met

**Query** Please let me know if O=C(O[C@@H]1Cc2c(O)cc(O)cc2O[C@@H]1c1cc(O)c(O)c(O)c1)c1cc(O)c(O)c(O)c1 [(−)-Epigallocetechin-3-gallate] shows Inhibition of CYP 2E1 below 30%.
**Result** Condition not met

**Query** Please let me know if COc1ccc([C@@H]2CC(=O)c3c(O)cc(O[C@@H]4O[C@H](CO)[C@@H](O)[C@H](O)[C@H]4O[C@@H]4O[C@@H](C)[C@H](O)[C@@H](O)[C@H]4O)cc3O2)cc1O shows Inhibition of CYP 2E1 below 30%.
**Result** Condition not met

**Query** Please let me know if O=S(=O)([O-])NC1CCCCC1.[Na+] [Sodium cyclamate] shows Inhibition of CYP 2E1 below 30%.
**Result** Condition met

**Query** Please let me know if Oc1cc(O)c2c(c1)O[C@H](c1cc(O)c(O)c(O)c1)[C@H](O)C2 [(−)-Epigallocatechin] shows Inhibition of CYP 2E1 below 30%.
**Result** Condition not met

**Query** Please let me know if COc1ccc([C@@H]2CC(=O)c3c(O)cc(O[C@@H]4O[C@H](CO[C@@H]5O[C@@H](C)[C@H](O)[C@@H](O)[C@H]5O)[C@@H](O)[C@H](O)[C@H]4O)cc3O2)cc1O shows Inhibition of CYP 2E1 below 30%.
**Result** Condition not met

**Query** Please let me know if Oc1cc(O)c2c(c1)O[C@@H](c1ccc(O)c(O)c1)[C@@H](O)C2 [(+)-Epicatechin] shows Inhibition of CYP 2E1 below 30%.
**Result** Condition not met

**Query** Please let me know if COc1ccc(O)c(C(C)(C)C)c1 [Butylated hydroxyl anisol] shows Inhibition of CYP 2E1 below 30%.
**Result** Condition met

**Query** Please let me know if O=c1cc(-c2ccc(O)c(O)c2)oc2cc(O[C@@H]3O[C@H](CO)[C@@H](O)[C@H](O)[C@H]3O)cc(O)c12 [Luteolin-7-Glucoside] shows Inhibition of CYP 2E1 below 30%.
**Result** Condition not met
